Source listed as ChEMBL document CHEMBL5331106.

- measurement target: (2Z,6E)-farnesyl diphosphate synthase (Mycobacterium tuberculosis, UniProt P9WFF5)
- Sequence (P9WFF5 whole entry): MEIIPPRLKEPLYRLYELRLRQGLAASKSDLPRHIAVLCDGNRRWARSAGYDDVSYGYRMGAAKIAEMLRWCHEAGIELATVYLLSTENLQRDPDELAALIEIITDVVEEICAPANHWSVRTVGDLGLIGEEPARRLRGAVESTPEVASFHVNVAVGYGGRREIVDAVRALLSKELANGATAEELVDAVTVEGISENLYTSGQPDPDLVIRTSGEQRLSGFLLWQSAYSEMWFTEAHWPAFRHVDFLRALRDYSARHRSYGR
observable: IC50

// CC(C)=CCC/C(C)=C/CNCCNC1C2CC3CC(C2)CC1C3 (stereo unspecified) [SQ109] : IC50 value = ≥ 50 µM
